target-under-test: T1, GRIP1_7, Q9Y3R0
T1 sequence (Q9Y3R0 999-1096, limits assumed, looked up): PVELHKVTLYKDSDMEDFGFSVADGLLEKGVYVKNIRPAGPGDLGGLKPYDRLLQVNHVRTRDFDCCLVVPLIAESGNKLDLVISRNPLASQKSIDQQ
experiment-summary: holdup assay
Design: key: below the threshold = too weak to quantify, mostly under pKd 3.1 to 4
condition-info: plain residues with an end cap or a label only (N-terminal biotin on a linker: ado-ado)
assay-readout: pKd

> print(dat)
                                   binder                value
1               EDLTKNHDEL [RCN1, Q15293]  below the threshold
2               EEPEERHTEL [CES2, O00748]  below the threshold
3            TETASVCTKV [SLC23A1, Q9UHI7]  below the threshold
4  QKNKDKEYYV [NRXN3_rs746444206, Q9Y4C0]                 4.55
5              FVHPILQSAV [PRKCA, P17252]  below the threshold

Ask: Need pKd, item GFGEERESIL [KIDINS220, Q9ULH0]
Reply: below the threshold

These measurements were taken from paper PMC9482650.
